system-name: T1, Cdc13 (Saccharomyces cerevisiae, UniProt P32797 1-924)
T1 sequence: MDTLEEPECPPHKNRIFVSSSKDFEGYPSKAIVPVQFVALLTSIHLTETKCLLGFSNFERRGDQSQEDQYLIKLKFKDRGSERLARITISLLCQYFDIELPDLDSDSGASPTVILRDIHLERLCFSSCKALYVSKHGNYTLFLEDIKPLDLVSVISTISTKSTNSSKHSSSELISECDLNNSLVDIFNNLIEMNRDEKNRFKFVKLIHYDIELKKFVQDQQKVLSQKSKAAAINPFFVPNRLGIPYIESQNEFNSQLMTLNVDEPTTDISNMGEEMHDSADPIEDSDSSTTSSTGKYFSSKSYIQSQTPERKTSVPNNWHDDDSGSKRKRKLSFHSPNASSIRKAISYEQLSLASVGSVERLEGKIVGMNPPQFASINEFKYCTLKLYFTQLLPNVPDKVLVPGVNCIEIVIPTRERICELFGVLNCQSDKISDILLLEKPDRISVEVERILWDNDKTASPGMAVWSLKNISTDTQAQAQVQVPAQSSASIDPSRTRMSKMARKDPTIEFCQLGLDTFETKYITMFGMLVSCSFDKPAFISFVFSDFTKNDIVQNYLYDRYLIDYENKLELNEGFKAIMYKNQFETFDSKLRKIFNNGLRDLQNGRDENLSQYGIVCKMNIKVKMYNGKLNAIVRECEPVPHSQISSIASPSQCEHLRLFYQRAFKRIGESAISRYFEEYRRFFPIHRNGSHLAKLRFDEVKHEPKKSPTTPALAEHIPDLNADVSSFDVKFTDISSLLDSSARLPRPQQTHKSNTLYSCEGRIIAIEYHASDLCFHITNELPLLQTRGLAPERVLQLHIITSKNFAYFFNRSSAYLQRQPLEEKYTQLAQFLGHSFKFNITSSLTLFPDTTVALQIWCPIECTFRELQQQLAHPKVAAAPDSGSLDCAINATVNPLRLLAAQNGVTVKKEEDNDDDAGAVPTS
assay-protocol: EMSA
attribute-measured: Kd

Provide Kd value for the following binder: GTGTGGGTGTG (ssDNA) [Tel11]
0.0134 nM
